# ASSAYED SYSTEM: T1, human insulin receptor (HIR) (human, UniProt P06213 28-1382, limits assumed)
# T1 construct: Detergent-solubilised receptor; The natural receptor is an alpha2-beta2 heterotetramer cleaved from one precursor
# ASSAY INFO: 125I-insulin displacement, solubilised HIR
ENDPOINT LABEL: pKd
Worth noting: pKd values are minus log10 of concentrations stated in mol/L.

Qu. What value of pKd has been recorded for this entry: S374 (not fully specified; N-terminal Ald (aldehyde from periodate oxidation of serine) coupled to linker 17, dimer, N-N) peptide 1: XGSLDESFYDWFERQLGKK peptide 2: XGSLDESFYDWFERQLGKK
Ans. 6.74

Qu. Please give the result for S290 (not fully specified; N-terminal Lig′ coupled to linker 7, dimer, N-N) peptide 1: XGGGFHENFYDWFVRQVSKK peptide 2: XGGGFHENFYDWFVRQVSKK too.
Ans. 6.05

Qu. Please give the result for WLQRNANFYDWFVAELG [S237] too.
Ans. 6.07

Qu. Please give the result for IQGWEPFYGWFDDVVAQMFEE [S264] too.
Ans. 6.72

Data credit: patent US20030236190A1
